assay: Pharmacokinetic study of 14A in male CD-1 mice
Format: in vivo
experimental.context: CD-1, mouse, blood, 10 mg/kg PO, 24 h, read-out: oral C24 trough concentration
measure.name: concentration at 24 h (ng/mL)
Supply the numeric figure in ng/mL, leaving out any unit text.

IN: Can you share its concentration at 24 h? I mean this molecule: CN(C)[C@@H]1CCC2=CC3=CC[C@]4(C)[C@@H](c5ccc6ccncc6c5)CC[C@H]4C34CC[C@]2(C1)O4 [14A, α-dimethylamine]
OUT: 14.2

---

Test system: MOLM-14
assay: Cell growth assay, MOLM-14 AML cell line
Assay type: cell-based, human
experimental.context: Homo sapiens, MOLM-14, 240 h; day 10; cells passaged, fresh compound added on days 3 and 7; read-out: MOL M14 G150 day 10
Please go through the items and note down their GI50.
Give the number; nM is assumed, so skip it.

IN: I have this compound here, COCCN(C)[C@H]1CCC2=CC3=CC[C@]4(C)C(c5ccc6ccncc6c5)CC[C@H]4[C@@]34CC[C@]2(C1)O4 (stereo partly drawn) [27B, β-2-methoxyethylmethylamine] , and I need its recorded GI50.
OUT: 10

IN: // GI50 lookup, key: COCCN(CCOC)[C@H]1CCC2=CC3=CC[C@]4(C)C(c5ccc6ccncc6c5)CC[C@H]4[C@@]34CC[C@]2(C1)O4 (stereo partly drawn) [28B, β-bis-2-methoxyethylamine]
OUT: 15

IN: # get_value(readout='GI50', item= CC(C)(C)N[C@@H]1CCC2=CC3=CC[C@]4(C)C(c5ccc6ccncc6c5)CC[C@H]4C34CC[C@]2(C1)O4 (stereo partly drawn) [43A, α-t-butylamine] )
OUT: 200

IN: Data request, read-out GI50, for C[C@]12CC=C3C=C4CC[C@@H](N5CCCC5)C[C@]45CC[C@]3(O5)[C@@H]1CC[C@@H]2c1ccc2ccncc2c1 [19A, α-pyrrolidine]
OUT: 5

IN: Reported GI50, compound C[C@]12CC=C3C=C4CC[C@H]([N+](C)(C)[O-])CC45CC[C@]3(O5)[C@@H]1CC[C@@H]2c1ccc2ccncc2c1 [14BNO, 14B-N-Oxide] : ____
OUT: 2

IN: # input compound: CN(C)[C@H]1CCC2=CC3=CC[C@]4(C)[C@@H](c5ccc6ccncc6c5)CC[C@H]4C34CC[C@]2(C1)O4 [14B, β-dimethylamine] ; wanted: its GI50
OUT: 3

IN: Can you share its GI50? I mean this compound: CC1(O)CN([C@@H]2CCC3=CC4=CC[C@]5(C)[C@@H](c6ccc7ccncc7c6)CC[C@H]5C45CC[C@]3(C2)O5)C1 [69A, α-hydroxymethylazetidine]
OUT: 30

IN: Recorded GI50 of CN[C@@H]1CCC2=CC3=CC[C@]4(C)C(c5ccc6ccncc6c5)CC[C@H]4C34CC[C@]2(C1)O4 (stereo partly drawn) [24A, α-monomethylamine] , please.
OUT: 18

IN: Give the measured GI50 of C[C@]12CC=C3C=C4CC[C@H](NS(C)(=O)=O)C[C@]45CCC3(O5)[C@@H]1CC[C@@H]2c1ccc2ccncc2c1 [73B, β-methylsulfonamide] .
OUT: 200

IN: Look up GI50 for this compound: C[C@]12CC=C3C=C4CC[C@H](N5CCOCC5)C[C@]45CCC3(O5)[C@@H]1CC[C@@H]2c1ccc2ccncc2c1 [15B, β-morpholine]
OUT: 12.5

IN: Given the compound C[C@]12CC=C3C=C4CC[C@@H](NCC5(O)COC5)CC45CC[C@]3(O5)[C@@H]1CC[C@@H]2c1ccc2ccncc2c1 [72A, α-hydroxyaminomethyloxetane] , what is its reported GI50?
OUT: 4

IN: Recorded GI50 for CN1CCN([C@H]2CCC3=CC4=CC[C@]5(C)[C@@H](c6ccc7ccncc7c6)CC[C@H]5C45CC[C@]3(C2)O5)CC1 [16B, β-N-methylpiperazine] , please?
OUT: 9

IN: GI50 for CC(C)N(C)[C@H]1CCC2=CC3=CC[C@]4(C)[C@@H](c5ccc6ccncc6c5)CC[C@H]4[C@@]34CC[C@]2(C1)O4 [33B, β-isopropylmethylamine] ?
OUT: 60

IN: GI50 for CN(C)[C@H]1CCC2=CC3=CC[C@]4(C)C(c5ccc6ccncc6c5)=CC[C@H]4[C@@]34CC[C@]2(C1)O4 [23B] ?
OUT: 55

IN: Which GI50 value belongs to CN[C@H]1CCC2=CC3=CC[C@]4(C)C(c5ccc6ccncc6c5)CC[C@H]4C34CC[C@]2(C1)O4 (stereo partly drawn) [24B, β-monomethylamine] ?
OUT: 50

IN: So what does the record say about GI50 for CC1(N[C@H]2CCC3=CC4=CC[C@]5(C)C(c6ccc7ccncc7c6)CC[C@H]5C45CC[C@]3(C2)O5)COC1 (stereo partly drawn) [41B, β-3-methyl-3-oxetanamine] ?
OUT: 16
